# Test system: MDA-MB-231 cells
# test name: Cell proliferation assay (CellTiter-Glo), MDA-MB-231
# Assay type: cell-based
# test parameters: Homo sapiens, MDA-MB-231, 72 h, 72 h treatment, Celltiter-Glo luminescence
Class definitions on IC50: low interval: < 0.03 µM; middle interval: ≥ 0.03 µM and < 0.3 µM; high interval: ≥ 0.3 µM

{"compound": "C[C@@H]1CN(CC(=O)N2CC(C)(C)c3c2cc(Cc2ccc(F)cc2F)c2nn(C[C@H]4COCCO4)c(=O)n32)[C@@H](CN2CCOC[C@H]2C)CN1", "cat": "low interval"}
{"compound": "C[C@@H]1CN(CC(=O)N2CC(C)(C)c3c2cc(Sc2ccc(F)cc2N)c2ncnn32)[C@@H](CN2CCOC[C@H]2C)CN1", "cat": "middle interval"}
{"compound": "C[C@@H]1CN(CC(=O)N2CC(C)(C)c3c2cc(Cc2ccc(F)cc2)c2ncnn32)[C@@H](CN2CCOC3CC32)CN1 (stereo partly drawn)", "cat": "middle interval"}

Q: GET /class?item= "C[C@@H]1CN(CC(=O)N2CC(C)(C)c3c2cc(Cc2ccc(F)cc2)c2ncnn32)[C@@H](CN2Cc3cccnc3C2=O)CN1"
Ans: middle interval

Q: Band of "C[C@@H]1CN(CC(=O)N2CC(C)(C)c3c2cc(Cc2ccc(F)cc2)c2nncn32)[C@@H](CN2CCOC[C@H]2C)CN1" ?
Ans: high interval

Q: Dear colleague, I would appreciate it if you could identify the bin for "C[C@@H]1CN(CC(=O)N2CC(C)(C)c3c2cc(Cc2ccc(F)cc2)c2nc(C(N)=O)cn32)[C@@H](CN2CCOC[C@H]2C)CN1" and reply at your convenience.
Ans: middle interval

Q: Would you mind sorting "C[C@@H]1CN(CC(=O)N2CC(C)(C)c3c2cc(Cc2ccc(F)cc2)c2nc(-c4ccn[nH]4)nn32)[C@@H](CN2CCOC[C@H]2C)CN1" into the appropriate category?
Ans: low interval

Q: Lab note: which band did "Cc1ncc(Cc2cc3c(n4ncnc24)C(C)(C)CN3C(=O)CN2C[C@@H](C)NC[C@@H]2CN2CCOC[C@H]2C)s1" land in?
Ans: middle interval

Q: Each compound maps to one class by IC50. Which class for "C[C@@H]1CN(CC(=O)N2CC(C)(C)c3c2cc(Cc2ccc(F)cc2)c2ncnn32)[C@@H](CN2CCN(C)C(=O)[C@H]2C)CN1" ?
Ans: high interval

Q: Please report the category associated with "C[C@@H]1CN(CC(=O)N2CC(C)(C)c3c2cc(Cc2ccc(F)cc2)c2nn(CC(C)(C)O)c(=O)n32)[C@@H](CN2C[C@@H]3C[C@H]2CO3)CN1" , nothing else.
Ans: high interval

Q: Tag the class for C[C@@H]1CN(CC(=O)N2CC(C)(C)c3c2cc(Cc2ccc(F)cc2)c2nc(C4COCCO4)nn32)[C@@H](CN2CCOC[C@H]2C)CN1 (stereo partly drawn)
Ans: low interval

Q: Hello team, could you let me know which band the following compound falls into: "C[C@@H]1CN(CC(=O)N2CC(C)(C)c3c2cc(Cc2ccc(F)cc2)c2nc(CO)nn32)[C@@H](CN2CCOC[C@H]2C)CN1"
Ans: middle interval

----------
Form field: pIC50 (one value per entry).
# System: MDA-MB-231 cells
# test name: Cell proliferation assay (CellTiter-Glo), MDA-MB-231
# Format: cell-based
# test parameters: Homo sapiens, MDA-MB-231, 72 h, 72 h treatment, Celltiter-Glo luminescence
The scale used: pIC50 is minus the common logarithm of the concentration in molar units.

Some entries whose results are on file:
{"mol smiles": "C[C@@H]1CN(CC(=O)N2CC(C)(C)c3c2cc(Cc2ccc(F)cc2)c2nc(C(F)(F)F)cn32)[C@@H](CN2CCOC[C@H]2C)CN1", "pIC50": 7.03}
{"mol smiles": "COCc1nc2c(Cc3ccc(F)cc3)cc3c(n2n1)C(C)(C)CN3C(=O)CN1C[C@@H](C)NC[C@@H]1CN1CCOC[C@H]1C", "pIC50": 7.74}
{"mol smiles": "C[C@@H]1CN(CC(=O)N2CC(C)(C)c3c2cc([C@H](O)c2ccc(F)cc2)c2ncnn32)[C@@H](CN2CCOC[C@H]2C)CN1", "pIC50": 6.72}
{"mol smiles": "C[C@@H]1CN(CC(=O)N2CC(C)(C)c3c2cc(Cc2ccc(F)cc2)c2nn(CC(F)(F)CO)c(=O)n32)[C@@H](CN2CCOC[C@H]2C)CN1", "pIC50": 7.74}

Q: Looking for the measured pIC50 of "C[C@@H]1CN(CC(=O)N2CC(C)(C)c3c2cc(Cc2ccc(F)cc2)c2nn(C[C@H]4COCCO4)c(=O)n32)[C@@H](CN2CCOC[C@H]2C)CN1" , can you help?
Ans: 7.34

----------
Each entry below carries its reported IC50.
# Test system: MDA-MB-231 cells
# test name: Cell proliferation assay (CellTiter-Glo), MDA-MB-231
# Assay type: cell-based
# test parameters: Homo sapiens, MDA-MB-231, 72 h, 72 h treatment, Celltiter-Glo luminescence
# Protocol: Example 238: Cell Proliferation Assay MDA-MB-231 and EVSA-T cells (10000 cells/well) were plated onto 96-well plates (Corning, Cat #3917) in 95 μL of medium (RPMI-1640 containing 10% FBS and MEM containing 10% FBS, respectively). […] After treatment for 72 h, 30 μL of Celltiter-Glo reagent (Promega, Cat #G7573) was added and incubated at room temperature for 15 min, then the luminescent signal was determined using a microplate reader (Biotek, SynergyH1). […]
Give the value, in units of nM, as a plain number.

Some solved entries appear below for comparison.
{"compound": "Cc1nnc2c(Cc3ccc(F)cc3F)cc3c(n12)C(C)(C)CN3C(=O)CN1C[C@@H](C)NC[C@@H]1CN1CCOC[C@H]1C", "test system": "MDA-MB-231 cells", "obs value": 1330}
{"compound": "C[C@@H]1CN(CC(=O)N2CC(C)(C)c3c2cc(Cc2ccc(F)cc2)c2nn(Cc4ccncc4)c(=O)n32)[C@@H](CN2CCOC[C@H]2C)CN1", "test system": "MDA-MB-231 cells", "obs value": 69}
{"compound": "C[C@@H]1CN(CC(=O)N2CC(C)(C)c3c2cc(Cc2ccc(F)cc2)c2nn(Cc4cccc(F)n4)c(=O)n32)[C@@H](CN2CCOC[C@H]2C)CN1", "test system": "MDA-MB-231 cells", "obs value": 47}

Q: GET /values?readout=IC50&item= "C[C@@H]1CN(CC(=O)N2CC(C)(C)c3c2cc(Cc2ccc(F)cc2)c2nn(C(CO)CO)c(=O)n32)[C@@H](CN2CCOC[C@H]2C)CN1"
Ans: 350

Q: I would be grateful if you could share the reported IC50 for "C[C@@H]1CN(CC(=O)N2CC(C)(C)c3c2cc(Cc2ccc(F)cc2)c2nc(CF)nn32)[C@@H](CN2CCOC[C@H]2C)CN1" .
Ans: 51

Q: Given the compound C[C@@H]1CN(CC(=O)N2CC(C)(C)c3c2cc(Cc2ccc(F)cc2)c2ncnn32)C(CN2CCN(CC#N)C3CC32)CN1 (stereo in doubt) , what is its reported IC50?
Ans: 560

Q: I have this compound here, "C[C@@H]1CN(CC(=O)N2CC(C)(C)c3c2cc(Cc2ccc(F)cc2)c2c(C#N)cnn32)[C@@H](CN2CCOC[C@H]2C)CN1" , and I need its recorded IC50.
Ans: 100

Q: Sample "C[C@@H]1CN(CC(=O)N2CC(C)(C)c3c2cc(C(=O)c2ccc(F)cc2)c2ncnn32)[C@@H](CN2CCOC[C@H]2C)CN1" — what was its IC50?
Ans: 710

----------
# Test system: MDA-MB-231 cells
# test name: Cell proliferation assay (CellTiter-Glo), MDA-MB-231
# Format: cell-based
# test parameters: Homo sapiens, MDA-MB-231, 72 h, 72 h treatment, Celltiter-Glo luminescence
# Method: Example 238: Cell Proliferation Assay MDA-MB-231 and EVSA-T cells (10000 cells/well) were plated onto 96-well plates (Corning, Cat #3917) in 95 μL of medium (RPMI-1640 containing 10% FBS and MEM containing 10% FBS, respectively). […] After treatment for 72 h, 30 μL of Celltiter-Glo reagent (Promega, Cat #G7573) was added and incubated at room temperature for 15 min, then the luminescent signal was determined using a microplate reader (Biotek, SynergyH1). […]
We label by threshold. Values of IC50 strictly beneath 80 nM are true. Values of 80 nM and up are false.

Observe how each entry below is paired with its result.
{"molecule": "C[C@@H]1CN(CC(=O)N2CC(C)(C)c3c2cc(Cc2ccc(F)cc2)c2nn(CC(C)(C)O)c(=O)n32)[C@@H](CN2CCOCC23CC3)CN1", "test system": "MDA-MB-231 cells", "cat": "true"}
{"molecule": "C[C@@H]1CN(CC(=O)N2CC(C)(C)c3c2cc(Cc2ccc(F)cc2)c2nc(C(F)(F)F)cn32)[C@@H](CN2[C@@H](C)COC[C@@H]2C)CN1", "test system": "MDA-MB-231 cells", "cat": "true"}
{"molecule": "C[C@@H]1CN(CC(=O)N2CC(C)(C)c3c2cc(Cc2ccc(F)cc2)c2n[nH]c(=O)n32)[C@@H](CN2CCOC[C@H]2C)CN1", "test system": "MDA-MB-231 cells", "cat": "false"}
{"molecule": "C[C@@H]1CN(CC(=O)N2CC(C)(C)c3c2cc(Cc2ccc(F)cc2N)c2ncnn32)[C@@H](CN2CCOC[C@H]2C)CN1", "test system": "MDA-MB-231 cells", "cat": "true"}
{"molecule": "C[C@@H]1CN(CC(=O)N2CC(C)(C)c3c2cc(Cc2ccc(F)cc2)c2nn(C[C@@H]4COCCO4)c(=O)n32)[C@@H](CN2CCOC[C@H]2C)CN1", "test system": "MDA-MB-231 cells", "cat": "false"}

Q: A record lists "C[C@@H]1CN(CC(=O)N2CC(C)(C)c3c2cc(Cc2ccc(F)cc2)c2nc(CN(C)C)nn32)[C@@H](CN2CCOC[C@H]2C)CN1" . Is its IC50 below 80 nM?
Ans: true

Q: Is IC50 strictly under 80 nM for the entry "C[C@@H]1CN(CC(=O)N2CC(C)(C)c3c2cc(Cc2ccc(F)cc2)c2nc(N4C[C@@H](O)[C@@H](O)C4)nn32)[C@@H](CN2CCOC[C@H]2C)CN1" ?
Ans: true

Q: Could you please tell me whether IC50 recorded for "C[C@@H]1CN(CC(=O)N2CC(C)(C)c3c2cc(N2CCNc4cc(F)ccc42)c2ncnn32)[C@@H](CN2CCOC[C@H]2C)CN1" is less than 80 nM?
Ans: false
